Source: paper doi:10.1101/2022.03.30.486377

- tgt: HCoV-OC43 S protein (S1+S2 ECD) (Human coronavirus OC43 (HCoV-OC43)., UniProt P36334)
- Sequence (P36334 14-1297): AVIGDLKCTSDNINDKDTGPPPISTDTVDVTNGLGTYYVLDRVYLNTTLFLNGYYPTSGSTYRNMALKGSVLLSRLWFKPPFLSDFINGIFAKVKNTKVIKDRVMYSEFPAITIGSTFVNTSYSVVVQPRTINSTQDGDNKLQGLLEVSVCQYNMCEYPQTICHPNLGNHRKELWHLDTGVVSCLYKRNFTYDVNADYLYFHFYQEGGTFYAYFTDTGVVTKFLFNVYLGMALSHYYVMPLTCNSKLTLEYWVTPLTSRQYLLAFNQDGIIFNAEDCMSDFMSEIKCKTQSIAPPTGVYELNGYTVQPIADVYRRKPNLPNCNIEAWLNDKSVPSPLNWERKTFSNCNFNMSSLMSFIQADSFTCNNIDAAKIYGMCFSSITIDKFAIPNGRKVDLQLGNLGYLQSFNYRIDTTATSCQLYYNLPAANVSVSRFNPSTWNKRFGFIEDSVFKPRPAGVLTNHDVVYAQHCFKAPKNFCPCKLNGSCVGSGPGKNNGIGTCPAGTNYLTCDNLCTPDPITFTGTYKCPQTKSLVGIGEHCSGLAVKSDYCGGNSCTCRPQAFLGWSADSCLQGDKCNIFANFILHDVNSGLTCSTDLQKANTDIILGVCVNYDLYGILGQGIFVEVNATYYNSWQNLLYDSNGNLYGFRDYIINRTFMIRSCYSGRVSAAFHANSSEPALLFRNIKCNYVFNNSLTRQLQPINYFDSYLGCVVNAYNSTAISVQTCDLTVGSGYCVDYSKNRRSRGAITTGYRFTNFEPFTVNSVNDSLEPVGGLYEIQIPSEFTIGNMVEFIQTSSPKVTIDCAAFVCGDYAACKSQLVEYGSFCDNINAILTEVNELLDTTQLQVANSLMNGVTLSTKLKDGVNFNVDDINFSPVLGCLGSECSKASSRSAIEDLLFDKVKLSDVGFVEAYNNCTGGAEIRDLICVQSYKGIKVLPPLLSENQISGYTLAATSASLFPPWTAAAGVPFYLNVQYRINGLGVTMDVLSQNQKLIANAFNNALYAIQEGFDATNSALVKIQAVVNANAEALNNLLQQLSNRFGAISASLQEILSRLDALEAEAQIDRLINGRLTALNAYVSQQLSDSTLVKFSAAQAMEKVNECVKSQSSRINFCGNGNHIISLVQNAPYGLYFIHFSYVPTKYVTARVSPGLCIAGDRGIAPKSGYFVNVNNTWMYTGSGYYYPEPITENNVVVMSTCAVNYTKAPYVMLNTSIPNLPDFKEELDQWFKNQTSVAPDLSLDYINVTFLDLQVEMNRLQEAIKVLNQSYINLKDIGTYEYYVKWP
- protocol_details: ELISA

{"binder": "VP12E7 mAb (antibody, V domains shown) VH: QVQLVQSGGGVVQPGESLRLSCSGSGFTFNNYIMHWVRQAPGQGLDYVSGIGSDGRNTNYGDSVKGRFTISRDNSKDTLYLQMTSLRAEDTAFYYCVKGLDVLRFLDLSTPSGERLDAFDIWGQGTMVTVSS VL: DIVMTQSPSFLSASVGDRVTITCRASQGISNYLAWYQQKPGKAPHLLIYAASTLQSGVPSRFSGSGSGTEFTLTISSLQPEDFATYYCQQLNSYPLFTFGPGTKVDIE", "binding result": "binds"}
{"binder": "C13C9 mAb (antibody, V domains shown) VH: EVQLVQSGPEVKKPGTSARVSCKASGFTSKNTALQWVRQARGQPLEWMGWIDISNYITNYAQKFRGRLTITWDLSASMAYMELSSLRSEDTAVYYCAAVGKDDDVLTGGNKYFDHWGQGTLVTVSS VL: SYELTQPPSVSVSPGQTARITCSGDALPKKYAYWYQQKSGQAPVLVIHEDDKRPSGIPGRFSASSSGTTATLTISGAQVEDEADYYCYSTDTNDNHAFGSGTKLTVL", "binding result": "binds"}
{"binder": "C77G12 mAb (antibody, V domains shown) VH: EVQLVESGGGVVQPGRSLRISCAVSGFTFGSYAMHWVRQAPGKGLEWVGVMSSDGHNEYYADSVKGRFTISRDNSRNKLYLEMNNLRVDDTAVFYCARGSDYVDDSPPLHYWGQGTLVTVSS VL: DIQLTQSPSSLSASIGDRVTITCRASQDIANKLAWFQQAPGKAPKSLIYAASRLQSGVPSQFSGSGSGTDFTLTIESLQAGDFATYFCQQYDSFPFTFGPGTKVDVK", "binding result": "binds"}
